Attribution: the supplement of paper PMC8269313

Entries and their measured % inhibition of 4T1 cell number follow.
Test system: 4T1
Assay: % inhibition of 4T1 cell number vs DMSO control; higher = stronger growth inhibition
Settings: 1 µM; 3 days; substrate: plastic
Unit % implied. Number only.

Note to self: % inhibition of 4T1 cell number of Cc1cc(C=C2C(=O)C=CC2=O)cc(C)c1O with 4T1 was 32.3

Note to self: % inhibition of 4T1 cell number of CC(C)n1cnc2c(NCc3ccccc3O)nc(NCCCO)nc21 with 4T1 was 14.9

---

Entries and their measured % inhibition of 4T1 cell number follow.
System: 4T1
Experiment: % inhibition of 4T1 cell number vs DMSO control; higher = stronger growth inhibition
Settings: 1 µM; 3 days; substrate: lung fibroblast-derived matrix
Counter-ions that a name gives are not always drawn.
Unit % implied. Number only.

Past entries and their recorded results:
| compound | assayedSystem | observable | endpointValue |
| --- | --- | --- | --- |
| CC(C)[C@H](CO)Nc1nc(Nc2cccc(Cl)c2)c2ncn(C(C)C)c2n1 [Purvalanol A] | 4T1 | % inhibition of 4T1 cell number | 83.6 |
| N#CC(C#N)=C(N)/C(C#N)=C/c1ccc(O)cc1 | 4T1 | % inhibition of 4T1 cell number | -11.6 |
| N#C/C(=C(/N)Sc1ccccc1N)c1cccc(C(O)c2ccncc2)c1 (stereo not given) [MEK Inhibitor I] | 4T1 | % inhibition of 4T1 cell number | 50.2 |
| C[S+]([O-])c1ccc(-c2nc(-c3ccc(F)cc3)c(-c3ccncc3)[nH]2)cc1 (stereo not given) | 4T1 | % inhibition of 4T1 cell number | 99.2 |

Note to self: % inhibition of 4T1 cell number of CNCCNS(=O)(=O)c1cccc2cnccc12 [H-8, Dihydrochloride] with 4T1 was -6.96
